Values from patent US10618918B2

System: KP1009 CTX-M-15
Assay: Aztreonam potentiation (MPC@4), strain KP1009 CTX-M-15
Conditions: minimum BLI concentration inhibiting growth with aztreonam 4 μg/mL; tested up to 40 μg/mL
Observable: AZT MPC4 CTX-M-15 KP1009

Observe how each entry below is paired with its result.
Compound	AZT MPC4 CTX-M-15 KP1009
N#Cc1ccc2c(c1C(=O)[O-])O[B-](O)(O)CC2.[Na+].[Na+] [Compound 54]	Z (Z = MPC@4 > 20 μg/mL)
COc1ccc2c(c1C(=O)[O-])O[B-](O)(O)CC2.[Na+].[Na+] [Compound 7]	X (X = MPC@4 ≤ 5 μg/mL)
N#CCOc1ccc2c(c1C(=O)O)OB(O)CC2 [Compound 47]	X (X = MPC@4 ≤ 5 μg/mL)
NCC#CCOc1ccc2c(c1C(=O)[O-])O[B-](O)(O)CC2.[Na+].[Na+] [Compound 32]	X (X = MPC@4 ≤ 5 μg/mL)
C[C@@H]1Cc2cccc(C(=O)[O-])c2O[B-]1(O)O.[Na+].[Na+] [Compound 10]	Z (Z = MPC@4 > 20 μg/mL)
NCCn1cc(COc2ccc3c(c2C(=O)O)O[B-](O)(O)CC3)nn1 [Compound 23]	X (X = MPC@4 ≤ 5 μg/mL)
COc1c(Cl)cc2c(c1C(=O)O)OB(O)CC2 [Compound 41]	X (X = MPC@4 ≤ 5 μg/mL)
O=C(O)c1c(-c2c[nH]nn2)ccc2c1O[B-](O)(O)CC2 [Compound 16]	X (X = MPC@4 ≤ 5 μg/mL)

Request: Entry COc1ccc2c(c1P(=O)(O)O)OB(O)CC2 [Compound 33] has what AZT MPC4 CTX-M-15 KP1009?
Result: Z (Z = MPC@4 > 20 μg/mL)

Request: Data request, read-out AZT MPC4 CTX-M-15 KP1009, for CS(=O)(=O)c1ccc2c(c1C(=O)O)OB(O)CC2 [Compound 39]
Result: X (X = MPC@4 ≤ 5 μg/mL)

Request: What measured AZT MPC4 CTX-M-15 KP1009 goes with C#CCOc1ccc2c(c1C(=O)O)OB(O)CC2 [Compound 25] ?
Result: X (X = MPC@4 ≤ 5 μg/mL)

Request: Returns the measured AZT MPC4 CTX-M-15 KP1009 for the input compound. Input: NCCn1cc(-c2ccc3c(c2C(=O)O)O[B-](O)(O)CC3)nn1 [Compound 17]
Result: Z (Z = MPC@4 > 20 μg/mL)

Request: Return reported AZT MPC4 CTX-M-15 KP1009; argument: NC(=O)COc1ccc2c(c1C(=O)O)OB(O)CC2 [Compound 46]
Result: X (X = MPC@4 ≤ 5 μg/mL)

Request: Please report the recorded AZT MPC4 CTX-M-15 KP1009 for CSCC(=O)NC1CB(O)Oc2c(C(=O)O)cccc21 (stereo not shown) [Compound 3] .
Result: X (X = MPC@4 ≤ 5 μg/mL)

Request: I have this compound here, O=C(O)c1cccc2c1OB(O)CN2S(=O)(=O)Cc1ccccc1 [Compound 4] , and I need its recorded AZT MPC4 CTX-M-15 KP1009.
Result: Z (Z = MPC@4 > 20 μg/mL)
